# target_under_test: butyrylcholinesterase (BChE) from equine serum (Equus caballus)
# Sequence (P81908 whole entry, looked up): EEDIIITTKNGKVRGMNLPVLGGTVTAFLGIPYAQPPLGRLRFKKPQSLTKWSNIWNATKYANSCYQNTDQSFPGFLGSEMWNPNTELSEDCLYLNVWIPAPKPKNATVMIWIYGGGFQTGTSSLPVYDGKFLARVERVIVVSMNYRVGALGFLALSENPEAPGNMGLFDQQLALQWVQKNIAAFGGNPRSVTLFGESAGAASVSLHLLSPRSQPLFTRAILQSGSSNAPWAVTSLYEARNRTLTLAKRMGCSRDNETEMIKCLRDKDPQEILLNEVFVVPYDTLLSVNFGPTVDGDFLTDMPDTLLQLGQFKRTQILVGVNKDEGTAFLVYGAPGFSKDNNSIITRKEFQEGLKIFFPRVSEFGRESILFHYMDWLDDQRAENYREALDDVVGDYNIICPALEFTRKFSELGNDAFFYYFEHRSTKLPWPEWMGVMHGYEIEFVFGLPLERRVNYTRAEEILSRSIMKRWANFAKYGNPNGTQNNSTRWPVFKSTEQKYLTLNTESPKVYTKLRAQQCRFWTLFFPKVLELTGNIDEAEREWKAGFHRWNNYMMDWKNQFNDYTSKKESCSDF
# assay_info: biochemical
pIC50: −log10 of the molar value.

molecule | target_under_test | pIC50
COc1cc(-c2cc(=O)c3c(O)cc(O)cc3o2)cc(OC)c1O [TRN, 5,7,4′-trihydroxy-3′,5′-dimethoxyflavone] | butyrylcholinesterase (BChE) from equine serum (Equus caballus) | 2.78
